Biological target: T1, human Gal10-His (human, UniProt Q05315 2-142, limits assumed)
T1 construct: also called hGal10-His; human Gal10-His tagged; not shown: His tag
T1 sequence: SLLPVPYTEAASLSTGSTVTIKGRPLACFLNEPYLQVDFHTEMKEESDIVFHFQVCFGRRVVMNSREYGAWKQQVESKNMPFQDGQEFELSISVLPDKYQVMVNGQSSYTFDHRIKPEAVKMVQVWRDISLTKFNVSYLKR
Test: SPR Biacore 3000, hFab on human Gal10-His captured by anti-His CM5

Binder	U	kon
g7B07 (human Fab) (Fab, V domains shown, Human Fab backbone; their format is not certain; also called g7B07-hFab; germlined 7B07) VH: EVQLLESGGGLVQPGGSLRLSCAASGFTFRSYDMSWVRQAPGKGLEWVSAIKNGGGITYYADSVKGRFTISRDNSKNTLYLQMNSLRAEDTAVYYCATTHGIGTLGFGSWGQGTLVTVSS VL: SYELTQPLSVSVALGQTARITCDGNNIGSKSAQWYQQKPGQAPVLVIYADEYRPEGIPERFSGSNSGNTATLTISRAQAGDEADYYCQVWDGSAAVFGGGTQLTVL	M⁻¹ s⁻¹	670000

Origin of measurements: patent US20250059285A1
